Biological target: SCRIB_2, Q14160
Sequence (Q14160 857-960): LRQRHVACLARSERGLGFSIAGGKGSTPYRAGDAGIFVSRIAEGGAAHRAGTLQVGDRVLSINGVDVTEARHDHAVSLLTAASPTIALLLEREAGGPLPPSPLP
Assay: holdup assay
Parameters: key: below the threshold = too weak to quantify, mostly under pKd 3.1 to 4
Details: plain residues with an end cap or a label only (N-terminal biotin on a linker: ado-ado)
propertyMeasured: pKd

Illustrative cases are given below, each with its answer.
binder	pKd
TASPAKETSF [SLC2A7, Q6PXP3]	4.12
YLEPVLSSEL [ATP2A2, P16615]	3.56
SKENVQETQI [LRRC4B, Q9NT99]	4.27
QGLAERISVL [PRKD2, Q9BZL6]	below the threshold
IPLDGETEEL [MYOZ1, Q9NP98]	below the threshold
LKVPPEERLI [CRB2, Q5IJ48]	below the threshold
SAAKVLTSMC [GHRHR, Q02643]	below the threshold
QSARLWETSI [ADAM22, Q9P0K1]	4.71
LPHGHSTTRV [NLGN4X, Q8N0W4]	below the threshold
LGRSTPQSEV [DGKH, Q86XP1]	below the threshold

Report pKd for VYPNAKVELV [PDLIM4_iso2, P50479;P50479-1]
below the threshold

Report pKd for KKMPSIESDV [GRIN2A, Q12879]
4.43

Report pKd for KKAPTNEFYA [SDC4, P31431]
below the threshold

Report pKd for IKAIVDLTGL [TRAF2, Q12933]
below the threshold

Report pKd for VNKSKLLTDV [KCNA1, Q09470]
below the threshold

Report pKd for QPCFNKLFPL [LPXN, O60711]
below the threshold

Source: paper PMC9482650
